Data origin: patent US12583820B2

Molecular target: 3CLpro of SARS-CoV-2 (Severe acute respiratory syndrome coronavirus 2, UniProt P0DTD1)
Construct: The codon-optimized cDNA of full length of 3CLpro of SARS-CoV-2; 6xHis (N); made in house; pET-28a(+) vector (points to E. coli, my inference)
Experiment: biochemical
Format: biochemical
pIC50: −log10 of the molar value.

molecule | pIC50
CCCCC1CCC(OC(=O)N[C@@H](CC(C)C)C(=O)N[C@H](C=O)C[C@@H]2CCNC2=O)CC1 (stereo partly drawn) [Compound 6e (Scheme 1)] | 6.10
CC(C)C[C@H](NC(=O)OC(C)(C)C1CCC(F)(F)CC1)C(=O)N[C@@H](C[C@@H]1CCNC1=O)C(O)S(=O)(=O)[O-].[Na+] (stereo partly drawn) [Compound 13c] | 6.05
CC(C)C[C@H](NC(=O)OC(C)C1CCC(F)(F)CC1)C(=O)N[C@@H](C[C@@H]1CCNC1=O)C(O)S(=O)(=O)O (stereo partly drawn) [Compound 12c] | 6.70
